Kindly supply the reported growth inhibition values for the records listed here.
# assayOverview: NCI Yeast Anticancer Drug Screen. Data for the mlh1 rad18 strain (AID 175)
# conditionLabel: S. cerevisiae mlh1 rad18 strain growth inhibition; at 50.0 µM; hits give high values
This is part of a sample that, as a whole, favours compounds with a hit. Of some 79,000 tested, about 15% had one in any assay. Calls of active or inactive are those of the source. Rule as the data show it: active = growth inhibition above about 70%; inactive = the rest.

Input line: Given the compound `CCCCC(=O)c1c(O)nc2sccn2c1=O` , write its reported growth inhibition.
Output line: 83.4% (active)

Input line: Given the compound `O=C(CNS(=O)(=O)Cc1ccccc1)NNc1ccccc1` , write its reported growth inhibition.
Output line: 40.1% (inactive)

Input line: Given the compound `N#CC(=S)Nc1cccc(Cl)c1` , write its reported growth inhibition.
Output line: 88.4% (active)

Input line: Given the compound `CC(=O)c1cc2c(Cl)cc(Cl)cc2oc1=O` , write its reported growth inhibition.
Output line: 1.3% (inactive)

Input line: Given the compound CCC(NC(C)c1ccccc1)C(=O)c1ccc(OCc2ccccc2)c(OCc2ccccc2)c1 (stereo not given) , write its reported growth inhibition.
Output line: -4.9% (inactive)
